Molecular target: T1, TONSL Ankyrin Repeat Domain (ARD, residues 512-692), purified recombinant (human, UniProt Q96HA7 512-692)
T1 construct: Expressed as a GST fusion in E. coli; Used in ITC, peptide pull-down and native MS; also called TONSL ARD; TONSL-ARD
T1 sequence: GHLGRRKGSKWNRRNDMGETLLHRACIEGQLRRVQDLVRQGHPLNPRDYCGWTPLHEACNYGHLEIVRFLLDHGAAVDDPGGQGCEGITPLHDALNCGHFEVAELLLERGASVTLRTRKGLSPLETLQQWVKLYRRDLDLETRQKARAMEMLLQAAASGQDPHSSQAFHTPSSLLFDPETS
Assay: native MS, abundance of the 1:1 protein-peptide complex, 10 µM TONSL ARD
Where no end group is shown, it is not given here.
Assign % P1L1 to each entry below.
Report as a plain number; the unit % is understood.

Which value of % P1L1 has been reported for KGGAKRHRKVLR-NH2 [Lys-Gly-Gly-Ala-Lys-Arg-His-Arg-Lys-Val-Leu-Arg-NH2, Example 13] in the records?
89.9

Same read-out for KGGAARHRKVLR-NH2 (H4 12-23 with Lys16 replaced by Ala) [Lys-Gly-Gly-Ala-Ala-Arg-His-Arg-Lys-Val-Leu-Arg-NH2, Example 15] ?
81.4

Same read-out for KGGAKRHAKVLR-NH2 (H4 12-23 with Arg19 replaced by Ala) [Lys-Gly-Gly-Ala-Lys-Arg-His-Ala-Lys-Val-Leu-Arg-NH2, Example 14] ?
73.3

Same read-out for AKRHRKVLR-NH2 [Ala-Lys-Arg-His-Arg-Lys-Val-Leu-Arg-NH2, Example 12] ?
62.6
